Hey, just so you know, these numbers are from ChEMBL document CHEMBL2216751.

- Target Of Assay: Phosphatidylinositol 4,5-bisphosphate 3-kinase catalytic subunit delta isoform (Homo sapiens, UniProt O00329)
- Sequence (O00329 whole entry, canonical isoform): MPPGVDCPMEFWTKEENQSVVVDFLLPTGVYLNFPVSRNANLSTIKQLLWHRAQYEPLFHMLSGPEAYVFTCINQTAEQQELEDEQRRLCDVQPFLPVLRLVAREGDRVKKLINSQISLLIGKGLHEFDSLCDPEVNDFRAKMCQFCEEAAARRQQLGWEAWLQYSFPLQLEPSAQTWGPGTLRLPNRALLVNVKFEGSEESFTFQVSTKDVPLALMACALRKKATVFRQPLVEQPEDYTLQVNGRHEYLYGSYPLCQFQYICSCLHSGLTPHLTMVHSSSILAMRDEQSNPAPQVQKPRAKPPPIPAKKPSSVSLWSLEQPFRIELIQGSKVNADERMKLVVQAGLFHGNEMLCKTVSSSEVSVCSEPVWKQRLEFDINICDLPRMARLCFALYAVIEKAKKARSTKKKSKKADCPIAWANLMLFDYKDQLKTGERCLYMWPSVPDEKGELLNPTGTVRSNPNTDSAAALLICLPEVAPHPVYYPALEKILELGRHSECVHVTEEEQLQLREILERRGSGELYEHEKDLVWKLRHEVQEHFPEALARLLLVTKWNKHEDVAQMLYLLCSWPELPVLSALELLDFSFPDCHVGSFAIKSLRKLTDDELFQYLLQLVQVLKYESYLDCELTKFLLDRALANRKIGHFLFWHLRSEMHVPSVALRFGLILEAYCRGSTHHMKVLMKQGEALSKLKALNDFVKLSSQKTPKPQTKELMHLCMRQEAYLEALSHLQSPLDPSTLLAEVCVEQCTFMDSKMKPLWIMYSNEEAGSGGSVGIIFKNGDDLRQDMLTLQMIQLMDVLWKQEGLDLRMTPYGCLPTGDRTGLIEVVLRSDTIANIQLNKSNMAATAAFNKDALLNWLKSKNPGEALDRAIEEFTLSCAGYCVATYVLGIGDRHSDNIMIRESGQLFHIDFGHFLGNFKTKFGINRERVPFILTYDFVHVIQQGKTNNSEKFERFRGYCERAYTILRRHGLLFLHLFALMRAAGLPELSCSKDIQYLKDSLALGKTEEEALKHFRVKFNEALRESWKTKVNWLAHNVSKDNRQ
- Experimental Details: Inhibition of PI3Kdelta using phosphatidylinositol as substrate by gamma33P[ATP] incorporation assay
Assay Readout: pIC50
// scale note: pIC50 = -log10(conc_M); give the bare number

Req: Supply measured pIC50 of O=c1cc(N2CCOCC2)oc2c(-c3ccccc3)cccc12 in your reply.
Resp: 5.98

---

IC50: recorded values
- Target Of Assay: Phosphatidylinositol 4,5-bisphosphate 3-kinase catalytic subunit delta isoform (Homo sapiens)
- Experimental Details: Inhibition of PI3Kdelta-mediated AKT phosphorylation in human Ramos cells by ELISA
- Type: cell-based

# Compound, IC50
data = [
    ("CC(Nc1ncnc2[nH]cnc12)c1cc(Cl)c2cncn2c1-c1cccc(F)c1 (configuration not stated)", "< 100 nM"),
]

Lab note: next compound to report on.
Req: Supply measured IC50 of Cc1cccn2c(C(C)Nc3ncnc4[nH]cnc34)c(-c3cc(F)cc(F)c3)nc12 (configuration not stated) in your reply.
Resp: < 500 nM

---

- Target Of Assay: Phosphatidylinositol 4,5-bisphosphate 3-kinase catalytic subunit delta isoform (Homo sapiens, UniProt O00329)
- Applied Conditions: read-out: IC50
IC50: recorded values

Req: Supply measured IC50 of C[C@H](Nc1ncnc2[nH]cnc12)c1nc2ccsc2c(=O)n1-c1ccccc1 in your reply.
Resp: 6 nM

---

- Target Of Assay: Phosphatidylinositol 4,5-bisphosphate 3-kinase catalytic subunit delta isoform (Homo sapiens, UniProt O00329)
- Applied Conditions: read-out: IC50
IC50: recorded values

# example entries with known answers
# Compound, IC50
measured = [
    ("Cc1cccn2c(C(C)Nc3ncnc4[nH]cnc34)c(-c3cc(F)cc(F)c3)nc12 (configuration not stated)", "< 200 nM"),
    ("Cc1cccc2cc(C(C)Nc3ncnc4[nH]cnc34)nc(OC3CCN(C)CC3)c12 (configuration not stated)", "< 100 nM"),
    ("Cc1ccccc1-n1c(Cn2nc(-c3cc(O)cc(F)c3)c3c(N)ncnc32)nc2scc(C)c2c1=O", "< 100 nM"),
    ("CC(c1oc2ccccc2c(=O)c1-c1cccc(F)c1)n1cnc2c(N)ncnc21 (configuration not stated)", "< 250 nM"),
    ("CS(=O)(=O)N1CCN(Cc2cc3nc(-c4c(F)ccc5[nH]ccc45)nc(N4CCOCC4)c3s2)CC1", "< 100 nM"),
    ("CC(=O)Nc1ccc(C(=O)NC2=Nc3cc(N4CCOCC4)ccc3C3=NCCN23)cn1", "< 100 nM"),
]

Lab note: next compound to report on.
Req: Supply measured IC50 of CNc1nc(C)c2cc(-c3cc(O)cc(F)c3)ccc2n1 in your reply.
Resp: < 100 nM

---

IC50: recorded values
- Target Of Assay: Phosphatidylinositol 4,5-bisphosphate 3-kinase catalytic subunit delta isoform (Homo sapiens)
- Applied Conditions: read-out: IC50

# Molecule, IC50
rows = [
    ("COc1ccc(-c2ccc3c(n2)N(C2=NC(=O)C(C)(C)S2)CCO3)cc1OC", "27 nM"),
    ("COc1ccc(NC(=O)c2c(C)oc3ncn(CC(C)C)c(=O)c23)cc1", "5.9 nM"),
    ("CC(=O)Nc1nc2c(s1)-c1c(c(C3CC3)nn1C1CCC(C(=O)N[C@H]3CC[C@H](N4CCCC4)CC3)CC1)CC2 (some centres undefined)", "< 600 nM"),
]

Req: Supply measured IC50 of Cc1cccc2cc(Cn3cnc4c(N)ncnc43)c(N(C)CC3CCCN3C)nc12 (centres undefined) in your reply.
Resp: < 50 nM

Req: Supply measured IC50 of Clc1ccc(-c2nc(N3CCOCC3)sc2-c2nnc[nH]2)c(Cl)c1 in your reply.
Resp: < 100 nM
